// reported TGI per item
Test system: SK-MEL-2 melanoma
Assay: NCI tumour cell line growth inhibition, 48 h
observation type: TGI

>>> df
                                   compound    result
0  COP(C)(=O)C(Cc1c[nH]c2ccccc12)NC(=O)OCc1ccccc1 (stereo unspecified)  > 100 µM
1  COc1ccc(-c2c(N)n[nH]c2-c2cc(OC)c(OC)c(OC)c2)cc1  > 100 µM
2  OC(c1ccccc1)(c1cccnc1)C(O)(c1ccccc1)c1cccnc1 (stereo unspecified)  > 100 µM
3  COc1ccc2[nH]c(O)c(/C=c3/cc4c(c(-c5ccc(F)cc5)n3)=Nc3ccccc3-4)c2c1   30.7 µM
4                CCOC(=O)/N=c1/nc(N(C)C)ss1  > 100 µM
5  C=CCC(CNC(=O)OCc1ccccc1)OC(=O)OCc1ccccc1 (stereo unspecified)  > 100 µM

====

Measured GI50, listed per entry for reference.
Tested on: 786-0 renal
Assay: NCI tumour cell line growth inhibition, 48 h
observation type: GI50

                                entry_smiles  assay_target    result
 0              ClCC#CCSc1ncnc2c1ncn2CC#CCCl   786-0 renal   1.66 µM
 1  CCOC(=O)c1ccccc1-c1c2ccc(=[N+](C)C)cc-2oc2cc(N(C)C)ccc12   786-0 renal   0.94 µM
 2            O=[N+]([O-])c1cc(F)c2cccnc2c1O   786-0 renal   10.2 µM
 3            O=C(Nc1ccc(I)cc1F)c1cc(I)ccc1O   786-0 renal   1.03 µM
 4                  c1ccc2nc(OCCN3CC3)ccc2c1   786-0 renal   14.3 µM
 5  Cn1ccnc1C[N-]Cc1nccn1C.O=[N+]([O-])[O-].O=[N+]([O-])[O-].[Cu+2]   786-0 renal  > 100 µM
 6  COc1cc(-c2nn(-c3ccc(NC(=O)c4cc(Cl)cc(Cl)c4)cc3)cc2-c2ccncc2)ccc1Cl   786-0 renal   1.97 µM
 7  Cc1cc(S(=O)(=O)Nc2nc3cc(Cl)ccc3o2)c(SCc2ccccc2)cc1Cl   786-0 renal   20.1 µM
 8  Cn1ncc(-c2ccc3c(=O)[nH]nc(CN)c3c2)c1-c1c(F)cc2ccccc2c1C#N   786-0 renal   5.21 µM
 9               O=C(CC(=O)c1ccccc1)c1ccccc1   786-0 renal     11 µM
10  CCCn1c(N)c(C(=O)CNc2ccc(I)cc2)c(=O)[nH]c1=O   786-0 renal   4.21 µM

====

Tested on: NCI-H460 lung
Assay: NCI tumour cell line growth inhibition, 48 h
The entries below come with measured TGI values attached.
observation type: TGI

compound	result
Cc1cc(O)c(C(c2ccncc2)c2c(O)cc(C)[nH]c2=O)c(=O)[nH]1	> 100 µM
COC(=O)Cc1nc2ccccc2o1	> 100 µM
O=C(NCCCCOCC#Cc1ccccc1C#CCS(=O)(=O)c1ccccc1)c1cc2ccccc2[nH]1	> 50 µM
CO[C@H](C(=O)O)[C@@H]1Cc2cc3cc(OC4CC(OC5CC(O)C(O)C(C)O5)C(O)C(C)O4)c(C)c(O)c3c(O)c2C(=O)[C@H]1OC1CC(OC2CC(OC3CC(C)(O)C(O)C(C)O3)C(O)C(C)O2)C(O)C(C)O1 (some centres undefined)	> 32.5 µM
CCOC(=O)/N=c1/nc(N(C)C)ss1	> 100 µM
CC(=O)O[C@H]1CC[C@H]2[C@@H]3CCC(C(C)=O)[C@H](C(=O)O)[C@H]3CC[C@]12C (some centres undefined)	> 100 µM
COc1cc(-c2nn(-c3ccc(NC(=O)c4cc(Cl)cc(Cl)c4)cc3)cc2-c2ccncc2)ccc1Cl	> 100 µM
COc1ccc(N2C(=O)C3CC4=CC(=O)C[C@H]4[C@H]32)cc1 (some centres undefined)	> 100 µM
Cc1cc(O)cc2c1c(=O)c1ccccc1n2C	> 100 µM
